- Test system: HT29
- Test method notes: cells
- Type: cell-based
- Condition summary: Homo sapiens, HT-29; HT29; 48 hours exposure; total growth inhibition (cytostatic effect); read-out: TGI
- Excerpt: The aim of this assay is to evaluate the in vitro cytostatic (ability to delay or arrest tumor cell growth) or cytotoxic (ability to kill tumor cells) activity of the samples being tested. A colorimetric type of assay, using sulforhodamine B (SRB) reaction has been adapted for a quantitative measurement of cell growth and viability (following the technique described by Skehan P et al. J. Natl. Cancer Inst. 1990, 82, 1107-1112). […]
Quantity kind: IC (total growth inhibition)

q: Please indicate IC (total growth inhibition) recorded for C/C=C\C[C@@H](C/C=C\NC(=O)[C@@H](NC(=O)C#C/C=C\C(C)=C\[C@H](C)[C@@H]1CC=C(OC)C(=O)O1)C(C)(C)C)O[Si](c1ccccc1)(c1ccccc1)C(C)(C)C
a: > 13.1 µM

q: Please indicate IC (total growth inhibition) recorded for CC#CC[C@@H](C/C=C\NC(=O)[C@@H](NC(=O)\C=C/C=C\C(C)=C\[C@H](C)[C@@H]1CC=C(OC)C(=O)O1)C(C)(C)C)OC(N)=O
a: 0.000125 µM

q: Please indicate IC (total growth inhibition) recorded for COC1=CC[C@@H]([C@@H](C)/C=C(C)/C=C\C#CC(=O)NC(C(=O)N/C=C\C[C@H](C/C=C(\C)Cl)O[Si](c2ccccc2)(c2ccccc2)C(C)(C)C)C(C)(C)C)OC1=O (stereo partly drawn)
a: > 12.5 µM

###

- Tested on: HT29
- Test method notes: cells
- Type: cell-based
- Condition summary: Homo sapiens, HT-29; HT29; 48 hours exposure; total growth inhibition (cytostatic effect); read-out: TGI
- Source text: The aim of this assay is to evaluate the in vitro cytostatic (ability to delay or arrest tumor cell growth) or cytotoxic (ability to kill tumor cells) activity of the samples being tested. A colorimetric type of assay, using sulforhodamine B (SRB) reaction has been adapted for a quantitative measurement of cell growth and viability (following the technique described by Skehan P et al. J. Natl. Cancer Inst. 1990, 82, 1107-1112). […]
Quantity kind: IC (total growth inhibition) (µM)
Just the number please, in µM, no unit attached.

q: Please indicate IC (total growth inhibition) recorded for C/C=C\C[C@@H](C/C=C\NC(=O)[C@@H](NC(=O)\C=C/C=C\C(C)=C\[C@H](C)[C@@H]1CC=C(OC)[C@H](O)O1)C(C)(C)C)OC(N)=O
a: 0.000127

q: Please indicate IC (total growth inhibition) recorded for COC1=CC[C@@H]([C@@H](C)/C=C\C=C/C(=O)N[C@H](C(=O)N/C=C\C[C@@H](O)C/C=C(\C)Cl)C(C)(C)C)OC1=O
a: 0.707

q: Please indicate IC (total growth inhibition) recorded for COC1=CC[C@@H]([C@@H](C)/C=C\C=C/C(=O)N[C@H](C(=O)N/C=C\C[C@H](C/C=C(\C)Cl)O[Si](C)(C)C(C)(C)C)C(C)(C)C)OC1=O
a: 2.35

###

Provide the recorded IC (total growth inhibition) for the entries that follow.
- System: HT29
- Test method notes: cells
- Type: cell-based
- Condition summary: Homo sapiens, HT-29; HT29; 48 hours exposure; total growth inhibition (cytostatic effect); read-out: TGI
Just the number please, in µM, no unit attached.

q: Please indicate IC (total growth inhibition) recorded for COC1=CC[C@@H]([C@@H](C)/C=C(C)/C=C\C#CC(=O)N[C@H](C(=O)N/C=C\C[C@H](C/C=C(\C)Cl)OC(N)=O)C(C)C)OC1=O [Compound 66b]
a: 0.0288

q: Please indicate IC (total growth inhibition) recorded for COC1=CC[C@@H]([C@@H](C)/C=C(C)/C=C\C#CC(=O)N[C@H](C(=O)N/C=C\C[C@H](C/C=C(\C)Cl)O[Si](C)(C)C(C)(C)C)C(C)C)OC1=O [Compound 64b]
a: 0.65

q: Please indicate IC (total growth inhibition) recorded for COC1=CC[C@@H]([C@@H](C)/C=C(C)/C=C\C#CC(=O)N[C@H](C(=O)N/C=C\C[C@@H](O)C/C=C(\C)Cl)C(C)(C)C)OC1=O [Compound 65a]
a: 3.03

q: Please indicate IC (total growth inhibition) recorded for CC#CC[C@@H](C/C=C\NC(=O)[C@@H](NC(=O)\C=C/C=C\C(C)=C\[C@H](C)[C@@H]1CC=C(OC)C(=O)O1)C(C)(C)C)O[Si](c1ccccc1)(c1ccccc1)C(C)(C)C [Compound 70]
a: 2.74

q: Please indicate IC (total growth inhibition) recorded for COC1=CC[C@@H]([C@@H](C)/C=C(C)/C=C\C#CCCC(=O)N[C@H](C(=O)N/C=C\C[C@H](C/C=C(\C)Cl)O[Si](c2ccccc2)(c2ccccc2)C(C)(C)C)C(C)(C)C)OC1=O [Compound 98]
a: 0.0701
